molecular target: Nav 1.7 (Homo sapiens (Human)); assay: Nav 1.7 in vitro assay, IonWorks Quattro (IWQ) population patch-clamp; assay type: cell-based; details: HEK 293 cells stably transfected with Nav 1.7; 26th pulse to -20 mV
readout: pIC50
Answers are plain numbers, as −log10 of the molar value.

Examples with answers:
- compound: "N#Cc1ccc(C(F)(F)F)cc1N1CCOc2cc(S(=O)(=O)Nc3nccs3)ccc21"
  pIC50: 6.73
- compound: "Cc1ccc(N2CCOc3cc(S(=O)(=O)Nc4nccs4)ccc32)c(C)n1"
  pIC50: 5.45
- compound: "N#Cc1cc(C(F)(F)F)ccc1N1CCOc2cc(S(=O)(=O)Nc3nccs3)ccc21"
  pIC50: 7.82
- compound: "CN1CC=C(c2cc(C(F)(F)F)ccc2N2CCOc3cc(S(=O)(=O)Nc4ncns4)ccc32)CC1 [Example 22, 2,2,2-Trifluoroacetate]"
  pIC50: 7.98
- compound: "O=S(=O)(Nc1nccs1)c1ccc2c(c1)OCCN2c1cccc(OC(F)(F)F)c1"
  pIC50: 6.47
- compound: "O=S(=O)(Nc1nccs1)c1ccc2c(c1)OCCN2c1ccc(C(F)(F)F)c(Cl)c1"
  pIC50: 5.91
- compound: "N#Cc1cc(N2CCOc3cc(S(=O)(=O)Nc4nccs4)ccc32)ccc1F [Example 175, 2,2,2-Trifluoroacetate]"
  pIC50: 6.69
- compound: "N#Cc1ccccc1N1CCOc2cc(S(=O)(=O)Nc3ncns3)ccc21"
  pIC50: 6.81

Give pIC50 for each of the items listed below.
1. O=S(=O)(Nc1nncs1)c1ccc2c(c1)OCCN2c1ccc(C(F)(F)F)cc1Cl
2. O=S(=O)(Nc1nccs1)c1ccc2c(c1)OCCN2c1cccc(Cl)c1
3. O=S(=O)(Nc1nccs1)c1ccc2c(c1)OCCN2c1ccc(Cl)cc1F [Example 170, 2,2,2-Trifluoroacetate]
4. COc1ccc(N2CCOc3cc(S(=O)(=O)Nc4nccs4)ccc32)c(OC)c1
5. N#Cc1cccc(Cl)c1N1CCOc2cc(S(=O)(=O)Nc3nccs3)ccc21

Data returned:
1: 6.18; 2: 6.95; 3: 6.40; 4: 6.10; 5: 5.66

Give pIC50 for each of the items listed below.
1. Cc1cc(C#N)ccc1N1CCOc2cc(S(=O)(=O)Nc3nccs3)ccc21
2. O=S(=O)(Nc1nccs1)c1ccc2c(c1)OCCN2c1ccc(C(F)(F)F)cc1C[C@H](O)CO (single isomer, unassigned)

Data returned:
[7.44, 7.73]

Data request: Report measured pIC50; entry is O=S(=O)(Nc1nccs1)c1ccc2c(c1)OCCN2c1ccc(Cl)cc1OC(F)F [Example 193, 2,2,2-Trifluoroacetate]
Data returned: 6.99

---

biological target: Nav 1.7 (Homo sapiens (Human)); test: Nav 1.7 in vitro assay, IonWorks Quattro (IWQ) population patch-clamp; assay type: cell-based; conditions: HEK 293 cells stably transfected with Nav 1.7; 26th pulse to -20 mV
I'd appreciate it if you could supply IC50 values for the items below.
Give bare numbers, in nM.

Examples with answers:
- compound: "O=S(=O)(Nc1nccs1)c1ccc2c(c1)OCCN2c1ccc(C(F)(F)F)cc1-c1ccncc1 [Example 53, 2,2,2-Trifluoroacetate]"
  IC50 (nM): 22.5
- compound: "CN(C)CCn1ccc(NS(=O)(=O)c2ccc3c(c2)OCCN3c2ccc(C(F)(F)F)cc2Cl)n1 [Example 14, 2,2,2-Trifluoroacetate]"
  IC50 (nM): 9310
- compound: "Cn1nccc1-c1cc(C(F)(F)F)ccc1N1CCOc2cc(S(=O)(=O)Nc3ncns3)ccc21"
  IC50 (nM): 10.8

Give IC50 for each of the items listed below.
1. O=S(=O)(Nc1ncccn1)c1ccc2c(c1)OCCN2c1ccc(C(F)(F)F)cc1Cl
2. N#Cc1c(F)cccc1N1CCOc2cc(S(=O)(=O)Nc3nccs3)ccc21
3. O=S(=O)(Nc1nccs1)c1ccc2c(c1)OCCN2c1ccc(C(F)(F)F)cc1C[C@@H](O)CO (single isomer, unassigned)

Data returned:
1: 1860; 2: 417; 3: 12.5

Give IC50 for each of the items listed below.
1. O=S(=O)(Nc1ccncn1)c1ccc2c(c1)OCCN2c1ccc(C(F)(F)F)cc1Br
2. O=S(=O)(Nc1nccs1)c1ccc2c(c1)OCCN2c1cccc2ccncc12 [Example 68, 2,2,2-Trifluoroacetate]
3. O=S(=O)(Nc1ncns1)c1ccc2c(c1)OCCN2c1ccc(C(F)(F)F)cc1-c1cccnc1

Data returned:
14.5
158
15.8

---

target: Nav 1.5 (Homo sapiens (Human)); assay: Nav 1.5 in vitro assay, IonWorks Quattro (IWQ) population patch-clamp; format: cell-based; details: HEK 293 cells stably transfected with Nav 1.5; 26th pulse to -20 mV
Sequence (Q14524 whole entry): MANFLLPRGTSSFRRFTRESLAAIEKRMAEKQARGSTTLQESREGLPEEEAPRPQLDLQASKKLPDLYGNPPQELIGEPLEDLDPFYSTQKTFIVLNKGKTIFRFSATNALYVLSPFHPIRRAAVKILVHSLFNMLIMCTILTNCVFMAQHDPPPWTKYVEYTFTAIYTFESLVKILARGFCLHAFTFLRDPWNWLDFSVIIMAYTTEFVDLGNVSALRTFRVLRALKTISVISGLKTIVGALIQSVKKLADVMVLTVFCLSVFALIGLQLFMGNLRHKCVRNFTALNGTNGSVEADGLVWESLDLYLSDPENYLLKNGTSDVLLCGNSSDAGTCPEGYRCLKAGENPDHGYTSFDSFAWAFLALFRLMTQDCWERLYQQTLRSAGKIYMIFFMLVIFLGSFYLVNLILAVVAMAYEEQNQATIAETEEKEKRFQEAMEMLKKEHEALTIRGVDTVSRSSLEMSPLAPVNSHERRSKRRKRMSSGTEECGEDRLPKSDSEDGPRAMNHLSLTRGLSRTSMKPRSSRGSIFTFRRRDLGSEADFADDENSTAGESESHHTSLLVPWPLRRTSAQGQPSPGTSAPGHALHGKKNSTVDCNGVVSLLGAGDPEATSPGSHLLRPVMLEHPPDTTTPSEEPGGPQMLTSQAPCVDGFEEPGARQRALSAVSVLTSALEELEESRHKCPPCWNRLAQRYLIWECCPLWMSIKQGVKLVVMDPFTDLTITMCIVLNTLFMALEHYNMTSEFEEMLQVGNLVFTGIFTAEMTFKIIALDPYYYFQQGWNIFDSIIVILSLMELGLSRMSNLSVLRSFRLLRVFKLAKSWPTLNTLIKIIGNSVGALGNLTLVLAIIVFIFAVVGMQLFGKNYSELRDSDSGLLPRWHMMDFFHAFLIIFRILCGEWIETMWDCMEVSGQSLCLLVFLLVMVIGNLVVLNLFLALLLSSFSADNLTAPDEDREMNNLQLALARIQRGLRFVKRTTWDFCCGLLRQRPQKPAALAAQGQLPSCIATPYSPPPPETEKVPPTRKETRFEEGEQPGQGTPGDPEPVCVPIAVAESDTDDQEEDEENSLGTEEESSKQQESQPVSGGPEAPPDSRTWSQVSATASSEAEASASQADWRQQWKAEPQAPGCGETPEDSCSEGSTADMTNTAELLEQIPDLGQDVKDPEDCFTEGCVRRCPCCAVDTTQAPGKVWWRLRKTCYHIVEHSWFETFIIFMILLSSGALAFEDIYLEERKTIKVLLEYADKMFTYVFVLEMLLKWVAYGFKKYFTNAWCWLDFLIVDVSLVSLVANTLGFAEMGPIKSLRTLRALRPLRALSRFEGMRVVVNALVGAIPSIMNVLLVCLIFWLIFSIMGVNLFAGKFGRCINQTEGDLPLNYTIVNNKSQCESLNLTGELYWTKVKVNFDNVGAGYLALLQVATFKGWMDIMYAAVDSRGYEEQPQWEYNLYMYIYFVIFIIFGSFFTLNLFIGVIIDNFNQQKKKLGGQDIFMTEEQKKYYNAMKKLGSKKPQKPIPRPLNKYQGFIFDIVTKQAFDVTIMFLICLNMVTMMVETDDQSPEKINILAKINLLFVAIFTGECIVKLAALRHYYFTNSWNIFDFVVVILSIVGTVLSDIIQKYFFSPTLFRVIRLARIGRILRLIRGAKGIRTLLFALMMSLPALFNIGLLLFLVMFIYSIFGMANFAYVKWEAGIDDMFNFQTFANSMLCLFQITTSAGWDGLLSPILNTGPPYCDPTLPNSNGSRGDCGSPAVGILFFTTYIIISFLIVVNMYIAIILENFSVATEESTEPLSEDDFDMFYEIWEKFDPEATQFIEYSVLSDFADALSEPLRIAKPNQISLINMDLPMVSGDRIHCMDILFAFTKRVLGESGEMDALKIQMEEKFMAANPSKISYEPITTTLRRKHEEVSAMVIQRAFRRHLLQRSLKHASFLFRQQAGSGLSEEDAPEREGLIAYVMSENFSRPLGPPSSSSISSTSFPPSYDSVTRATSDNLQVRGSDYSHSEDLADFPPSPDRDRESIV
I'd appreciate it if you could supply IC50 values for the items below.
Give bare numbers, in µM.

Examples with answers:
- molecule: "N#Cc1cc(C(F)(F)F)ccc1N1CCOc2cc(S(=O)(=O)Nc3ncns3)ccc21"
  IC50 / µM: 1.46
- molecule: "O=S(=O)(Nc1ncns1)c1ccc2c(c1)OCCN2c1ccc(C(F)(F)F)cc1-c1ccncc1"
  IC50 / µM: 0.306
- molecule: "N#Cc1cc(C(F)(F)F)ccc1N1CCOc2cc(S(=O)(=O)Nc3nccs3)ccc21"
  IC50 / µM: 1.15

Give IC50 for each of the items listed below.
1. Cc1ccc(F)c(N2CCOc3cc(S(=O)(=O)Nc4nccs4)ccc32)c1 [Example 80, 2,2,2-Trifluoroacetate]
2. C[C@@H]1COc2cc(S(=O)(=O)Nc3nccs3)ccc2N1c1ccc(C(F)(F)F)cc1C#N (single isomer, unassigned)
3. N#Cc1cc(C(F)(F)F)ccc1N1CCOc2c1ccc(S(=O)(=O)Nc1nccs1)c2F
4. Cn1nccc1-c1cc(C(F)(F)F)ccc1N1CCOc2cc(S(=O)(=O)Nc3ncns3)ccc21
5. CC(C)c1ccc(N2CCOc3cc(S(=O)(=O)Nc4nccs4)ccc32)c(C#N)c1
6. O=S(=O)(Nc1nccs1)c1ccc2c(c1)OCCN2c1ccc(OCC(F)(F)F)cc1
7. COc1cc(F)ccc1N1CCOc2cc(S(=O)(=O)Nc3nccs3)ccc21

Data returned:
1: 5.64; 2: 0.851; 3: 5.73; 4: 1.87; 5: 0.686; 6: 3.37; 7: 5.58

---

molecular target: Nav 1.5 (Homo sapiens (Human)); test: Nav 1.5 in vitro assay, IonWorks Quattro (IWQ) population patch-clamp; assay type: cell-based; conditions: HEK 293 cells stably transfected with Nav 1.5; 26th pulse to -20 mV
pIC50: −log10 of the molar value.
readout: pIC50

Give pIC50 for each of the items listed below.
1. COc1ccc(C)nc1N1CCOc2cc(S(=O)(=O)Nc3nccs3)ccc21
2. O=S(=O)(Nc1ncco1)c1ccc2c(c1)OCCN2c1ccc(C(F)(F)F)cc1Cl
3. O=S(=O)(Nc1nccs1)c1ccc2c(c1)OCCN2c1ccc(Cl)c(C(F)(F)F)c1
4. N#Cc1ccc(N2CCOc3cc(S(=O)(=O)Nc4nccs4)ccc32)cc1OC(F)(F)F

Data returned:
< 5.00
< 5.00
5.18
< 5.00

---

I'd appreciate it if you could supply IC50 values for the items below.
biological target: Nav 1.7 (Homo sapiens (Human), UniProt Q15858); test: Nav 1.7 in vitro assay, IonWorks Quattro (IWQ) population patch-clamp; format: cell-based; settings: HEK 293 cells stably transfected with Nav 1.7; 26th pulse to -20 mV
Sequence (Q15858 whole entry): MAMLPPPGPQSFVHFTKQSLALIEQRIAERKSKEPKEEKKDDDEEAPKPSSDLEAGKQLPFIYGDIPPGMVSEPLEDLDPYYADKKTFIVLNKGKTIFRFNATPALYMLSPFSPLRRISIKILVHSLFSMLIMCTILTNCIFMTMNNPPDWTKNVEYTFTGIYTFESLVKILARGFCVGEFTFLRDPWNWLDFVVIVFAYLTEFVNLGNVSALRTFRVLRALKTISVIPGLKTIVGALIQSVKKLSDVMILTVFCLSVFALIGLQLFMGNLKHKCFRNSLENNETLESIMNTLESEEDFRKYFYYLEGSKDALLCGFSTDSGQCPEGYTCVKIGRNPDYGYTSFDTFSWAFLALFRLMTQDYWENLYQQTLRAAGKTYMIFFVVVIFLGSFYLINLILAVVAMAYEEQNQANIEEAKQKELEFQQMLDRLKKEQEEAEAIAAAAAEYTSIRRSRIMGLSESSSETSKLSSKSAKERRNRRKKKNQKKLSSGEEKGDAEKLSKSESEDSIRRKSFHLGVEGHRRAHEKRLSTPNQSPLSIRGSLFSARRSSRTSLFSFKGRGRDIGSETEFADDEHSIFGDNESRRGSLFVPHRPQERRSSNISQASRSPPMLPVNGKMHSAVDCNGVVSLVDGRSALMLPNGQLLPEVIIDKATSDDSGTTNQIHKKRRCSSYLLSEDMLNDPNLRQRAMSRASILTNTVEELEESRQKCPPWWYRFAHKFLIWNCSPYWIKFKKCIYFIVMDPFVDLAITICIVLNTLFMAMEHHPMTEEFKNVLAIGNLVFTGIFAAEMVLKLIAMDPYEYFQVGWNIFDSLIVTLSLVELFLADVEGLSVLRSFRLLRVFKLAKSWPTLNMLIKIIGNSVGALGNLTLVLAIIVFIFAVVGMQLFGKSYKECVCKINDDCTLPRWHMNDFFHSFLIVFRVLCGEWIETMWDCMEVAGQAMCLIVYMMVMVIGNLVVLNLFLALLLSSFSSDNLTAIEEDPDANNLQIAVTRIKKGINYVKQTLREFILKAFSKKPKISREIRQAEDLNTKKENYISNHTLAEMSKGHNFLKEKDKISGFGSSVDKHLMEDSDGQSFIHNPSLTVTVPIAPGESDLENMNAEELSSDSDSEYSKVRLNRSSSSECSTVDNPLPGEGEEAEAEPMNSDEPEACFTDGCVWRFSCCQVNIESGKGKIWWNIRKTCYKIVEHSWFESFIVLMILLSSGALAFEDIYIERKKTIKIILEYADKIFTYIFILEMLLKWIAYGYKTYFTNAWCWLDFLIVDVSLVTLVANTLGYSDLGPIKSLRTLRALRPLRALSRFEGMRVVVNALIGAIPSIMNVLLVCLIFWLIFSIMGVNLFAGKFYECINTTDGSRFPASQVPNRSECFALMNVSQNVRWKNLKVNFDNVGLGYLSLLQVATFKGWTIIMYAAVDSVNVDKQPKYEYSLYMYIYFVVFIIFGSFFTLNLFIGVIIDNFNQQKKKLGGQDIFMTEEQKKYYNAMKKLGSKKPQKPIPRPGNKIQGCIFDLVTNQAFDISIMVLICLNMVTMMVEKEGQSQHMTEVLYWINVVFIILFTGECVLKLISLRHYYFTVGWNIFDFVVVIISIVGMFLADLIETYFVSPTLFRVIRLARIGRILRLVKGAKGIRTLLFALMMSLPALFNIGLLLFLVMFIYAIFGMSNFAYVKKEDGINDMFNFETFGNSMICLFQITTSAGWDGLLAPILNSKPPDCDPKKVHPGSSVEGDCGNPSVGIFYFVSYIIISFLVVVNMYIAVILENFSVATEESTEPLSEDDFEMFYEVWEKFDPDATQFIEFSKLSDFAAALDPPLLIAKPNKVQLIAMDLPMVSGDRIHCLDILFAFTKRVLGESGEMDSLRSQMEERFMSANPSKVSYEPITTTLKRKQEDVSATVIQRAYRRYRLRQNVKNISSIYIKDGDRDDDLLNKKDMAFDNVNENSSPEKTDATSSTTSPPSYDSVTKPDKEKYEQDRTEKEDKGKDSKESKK
Numbers only, in nM.

Examples with answers:
- compound: "O=S(=O)(Nc1nccs1)c1ccc2c(c1)OCCN2c1ccc(OC(F)(F)C(F)F)cc1 [Example 123]"
  result-number: 1070
- compound: "Nc1cc(-c2cc(C(F)(F)F)ccc2N2CCOc3cc(S(=O)(=O)Nc4ncns4)ccc32)ccn1 [Example 29]"
  result-number: 9.5

Give IC50 for each of the items listed below.
1. N#Cc1cc(C(F)(F)F)ccc1N1CCOc2cc(S(=O)(=O)Nc3nccs3)cc(F)c21 [Example 218]
2. CCC1CN(c2ccc(C(F)(F)F)cc2C#N)c2ccc(S(=O)(=O)Nc3nccs3)cc2O1 (racemic) [Example 100]
3. O=S(=O)(Nc1ccc(F)cn1)c1ccc2c(c1)OCCN2c1ccc(C(F)(F)F)cc1Cl [Example 17]
4. O=S(=O)(Nc1nccs1)c1ccc2c(c1)OCCN2c1ccc(C(F)(F)F)cc1CCO [Example 211]
5. O=S(=O)(Nc1nccs1)c1ccc2c(c1)OCCN2c1ccc(Cl)c(F)c1 [Example 155, 2,2,2-Trifluoroacetate]
6. Cc1cc(Cl)ccc1N1CCOc2cc(S(=O)(=O)Nc3nccs3)ccc21 [Example 195]
7. Cc1ccc(C#N)c(N2CCOc3cc(S(=O)(=O)Nc4nccs4)ccc32)n1 [Example 135]
8. Cc1c(F)cccc1N1CCOc2cc(S(=O)(=O)Nc3nccs3)ccc21 [Example 78, 2,2,2-Trifluoroacetate]

Data returned:
193
679
3630
5.5
2370
233
2680
249

// provenance: patent US9346798B2
